ASSAYED TARGET: Human immunodeficiency virus type 1 reverse transcriptase (Human immunodeficiency virus 1, UniProt Q72547)
PROTOCOL: Inhibition of HIV-1 reverse transcriptase assessed as assessed as reduction of biotin-dUTP incorporation into […] incubated for 1 hrs by ELISA analysis
pIC50: −log10 of the molar value.
ENDPOINT LABEL: pIC50

# SMILES STRUCTURE, ENDPOINT LABEL, RECORDED NUMBER
rows = [
    ("Cc1cc(C#N)cc(C)c1Oc1nc(Nc2ccc(C#N)cc2)nc2c1CN(C(=O)c1cccc([N+](=O)[O-])c1)CC2", "pIC50", 6.77),
    ("COC(=O)c1ccc(C(=O)N2CCc3nc(Nc4ccc(C#N)cc4)nc(Oc4c(C)cc(C#N)cc4C)c3C2)cc1", "pIC50", 6.63),
    ("Cc1ccc(C(=O)N2CCc3nc(Nc4ccc(C#N)cc4)nc(Oc4c(C)cc(C#N)cc4C)c3C2)cc1", "pIC50", 6.63),
    ("COc1ccc(C(=O)N2CCc3nc(Nc4ccc(C#N)cc4)nc(Oc4c(C)cc(C#N)cc4C)c3C2)cc1", "pIC50", 6.68),
]
